The origin of these recorded values is PubChem BioAssay AID1159580.

experiment-description: chemical genetic growth profiling, strain panel (AID 1159580);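 further: tested at 20 µM; growth read once vehicle control cultures reached saturation at 30 °C; 1 = growth at the plate median or of vehicle wells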
condition-details: S. cerevisiae deletion strains, growth OD, locus YNL161W, strain CBK1, stronger effect = lower value
Hit rate of the full screen: of about 5,500 compounds, about 2,000 (36%) were called active. Not shown: some 18% with an inconclusive outcome. This is one part of the list.

# compound, normalized growth
records = [
    ("Cn1cncc1S(=O)(=O)/C(C#N)=C/c1ccccc1Sc1ccc(Cl)cc1", 0.978),
    ("Cc1cc(SCc2[nH]nc3oc(=O)cc(C)c23)c(Cl)cc1Cl", 1.01),
    ("N#C/C(=C\\c1ccccc1Sc1ccc(Cl)cc1)S(=O)(=O)c1ccccn1", 0.968),
    ("CCC(C)c1ccccc1NC(=O)c1cc2cccc([N+](=O)[O-])c2[nH]1 (stereo not given)", 0.924),
    ("Cc1c(Cl)cccc1NC(=S)N1CCCN(c2ccc(C(F)(F)F)cc2[N+](=O)[O-])CC1", 0.979),
    ("O=C(Oc1cc(Cl)c(Cl)cc1Cl)C1c2ccccc2Oc2ccccc21", 0.94),
    ("C/C(=N/NC(N)=S)c1ccc(Oc2c(Cl)cncc2Cl)cc1", 1),
    ("COc1ccc(NC(=O)O/N=C(/N)c2ccc(Oc3c(Cl)cncc3Cl)cc2)cc1", 0.962),
    ("Cc1c(C(=O)N2CCCCC2)cc(-c2ccccc2)n1-c1ccccc1", 0.972),
    ("Cn1c([N+](=O)[O-])cnc1/C=C(\\C#N)C(=O)Nc1ccc(F)cc1", 0.324),
]

###

experiment-description: chemical genetic growth profiling, strain panel (AID 1159580)
condition-details: S. cerevisiae deletion strains, growth OD, locus YLR262C, strain YPT6, stronger effect = lower value
The whole screen tested about 5,500 compounds, of which about 2,000 (36%) were called active. About 18% were inconclusive and are not listed. The list shows a part of the results.
property: normalized growth

# compound, property, measured-result
measured = [
    ("Cc1ccc(O)cc1", "normalized growth", 1.07),
    ("COc1c(O)cc2oc3cc(O)c(CC=C(C)C)c(O)c3c(=O)c2c1CC=C(C)C", "normalized growth", 0.399),
    ("OCCN(CCO)c1nc(N2CCCCC2)c2nc(N(CCO)CCO)nc(N3CCCCC3)c2n1", "normalized growth", 0.994),
    ("COc1ccccc1C1CCN(C(=O)c2ccc(F)cc2)CC1", "normalized growth", 1.01),
    ("COc1ccccc1C1CCN(Cc2ccc3ccccc3c2)CC1", "normalized growth", 0.904),
    ("O=c1ccc2ccccc2o1", "normalized growth", 1.03),
    ("O=c1[nH]c2cccnc2[nH]c1=O", "normalized growth", 0.979),
    ("CN1C/C(=C\\c2ccccc2Cl)C(=O)/C(=C/c2ccccc2Cl)C1", "normalized growth", 0.655),
    ("CC(C)(C)OC(=O)N1CCC(C(N)=O)CC1", "normalized growth", 1.07),
    ("COC1C(O)C(O)C(O)[C@@H](O)C1O (stereo not given in full)", "normalized growth", 1.03),
    ("COC(=O)c1c(Cl)c(Cl)c(C(=O)OC)c(Cl)c1Cl", "normalized growth", 1.18),
    ("C/C=C(/C(=C/C)c1ccc(O)cc1)c1ccc(O)cc1", "normalized growth", 0.292),
    ("Cc1c(C(=O)O)cc(-c2ccccc2)n1-c1ccccc1", "normalized growth", 0.66),
    ("Cc1c(O)cc(O)c2c(=O)c(-c3ccc(O)cc3)coc12", "normalized growth", 1.21),
    ("COc1ccc(-c2coc3c(OC)c(OC)cc(OC)c3c2=O)cc1", "normalized growth", 0.904),
    ("COc1ccc(-c2coc3c(OC)c(OC)ccc3c2=O)cc1", "normalized growth", 0.906),
    ("NC(N)=NOCC[C@H](N)C(=O)O", "normalized growth", 0.954),
    ("O=c1ccc2cc(O)c(O)cc2o1", "normalized growth", 1.01),
    ("Oc1ccc(O)cc1", "normalized growth", 0.843),
    ("COc1cc(O)c2c(=O)cc(C)oc2c1CC=C(C)C", "normalized growth", 0.674),
    ("COc1ccc(S(=O)(=O)Nc2cc(C)c(C)cc2[N+](=O)[O-])c(OC)c1", "normalized growth", 0.967),
    ("COc1ccc2cc1Oc1ccc(cc1)C[C@H]1c3cc(c(OC)cc3CCN1C)Oc1c(OC)c(OC)cc3c1[C@H](C2)N(C)CC3", "normalized growth", 0.993),
    ("COc1ccc(OC)c(C(=O)c2cc(OC)c(OC)c(OC)c2)c1", "normalized growth", 0.69),
    ("CN=C(NC#N)NCCSCc1nc[nH]c1C", "normalized growth", 1.01),
    ("O=C(O)C1CC([C@@H]2CCCCN2)CN2CCCCC12 (stereo not given in full)", "normalized growth", 1.04),
]

###

Reported normalized growth values follow for various compounds
experiment-description: chemical genetic growth profiling, strain panel (AID 1159580);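 further: tested at 20 µM; growth read once vehicle control cultures reached saturation at 30 °C; 1 = growth at the plate median or of vehicle wells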
condition-details: S. cerevisiae deletion strains, growth OD, locus YFL029C, strain CAK1, stronger effect = lower value
In all, about 5,500 compounds went through this assay and about 2,000 (36%) were called active. About 18% were inconclusive and are not listed. The list shows a part of the results.

# compound, normalized growth
data = [
    ("C/C(=N/NC(N)=S)c1ccccn1", 0.945),
    ("Cn1c([N+](=O)[O-])cnc1/C=C(\\C#N)C(=O)Nc1ccc(F)cc1", 0.542),
    ("O=C(CCN1CCCCC1)c1ccc(-c2ccccc2)cc1", 0.978),
    ("Cc1c(C(=O)N2CCCCC2)cc(-c2ccccc2)n1-c1ccccc1", 0.967),
    ("O=[N+]([O-])c1cc(C(F)(F)F)ccc1-n1ccc(-c2cccs2)n1", 0.952),
    ("CC1=CC(=O)C(CCOCCC2=CC(=O)C(C)=CC2=O)=CC1=O", 0.987),
    ("CCC(C)c1ccccc1NC(=O)c1cc2cccc([N+](=O)[O-])c2[nH]1 (stereo unspecified)", 0.925),
    ("C/C(=N/NC(N)=S)c1ccc(Oc2c(Cl)cncc2Cl)cc1", 1),
    ("O=C(Oc1cc(Cl)c(Cl)cc1Cl)C1c2ccccc2Oc2ccccc21", 0.95),
    ("N#Cc1c(Cl)c(Cl)c(Cl)c(Cl)c1C#N", 0.639),
    ("O=C(NCc1ccco1)c1ccc(Oc2cc(Cl)cc(Cl)c2)o1", 0.951),
]

###

experiment-description: chemical genetic growth profiling, strain panel (AID 1159580);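 further: tested at 20 µM; growth read once vehicle control cultures reached saturation at 30 °C; 1 = growth at the plate median or of vehicle wells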
condition-details: S. cerevisiae deletion strains, growth OD, locus YMR223W, strain ubp8, stronger effect = lower value
About 2,000 (36%) of roughly 5,500 compounds were called active. Inconclusive results (about 18%) are left out. Some of the results follow.
Cut-off 1 on normalized growth: below means Y, at or above means N.

# smiles-structure, assigned-label
measured = [
    ("O=C(O)c1cc(=O)c2ccc(Cl)cc2[nH]1", "Y"),
    ("OCc1ccccc1O[C@@H]1O[C@H](CO)[C@@H](O)[C@H](O)[C@H]1O", "N"),
]

###

experiment-description: chemical genetic growth profiling, strain panel (AID 1159580);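 further: tested at 20 µM; growth read once vehicle control cultures reached saturation at 30 °C; 1 = growth at the plate median or of vehicle wells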
condition-details: S. cerevisiae strains, growth OD, strain wild type, stronger effect = lower value
Hit rate of the full screen: of about 5,500 compounds, about 2,000 (36%) were called active. About 18% were inconclusive and are not listed. The list shows a part of the results.

# compound, normalized growth
rows = [
    ("CC1(O)/C=C/C=C(\\CO)C2CC(C)(C)C2(O)CC1 (stereo unspecified)", 1.01),
    ("NC[C@@H]1O[C@H](O[C@@H]2[C@@H](CO)OC(O[C@@H]3[C@@H](O)[C@H](N)C[C@H](N)[C@H]3OC3O[C@H](CN)[C@@H](O)[C@H](O)[C@H]3N)[C@@H]2O)[C@H](N)[C@@H](O)[C@@H]1O (stereo partly specified)", 1.01),
    ("COc1ccc2c(c1)[C@@]1(C)CCC(=O)C[C@H]1CC2", 1.01),
    ("FC(F)(F)Oc1ccc(-c2noc(CSc3ccc(Br)cc3)n2)cc1", 0.985),
    ("C[N+](C)(C)CC(=O)[O-]", 0.996),
    ("CCC(C(N)=O)c1ccccc1 (stereo unspecified)", 1.01),
    ("O=C(O)c1ccccc1OP(=O)(O)O", 1.01),
    ("Cc1ccc2c(c1)CC[C@H]1CC(=O)CC[C@]21C", 0.994),
    ("CC(C)=CCc1c(O)cc2oc(C)cc(=O)c2c1O", 0.922),
    ("c1ccc(CC2=NCCN2)cc1", 1),
    ("C[CH2][Hg][S]c1ccccc1C(=O)O", 0.0464),
]
